- target.under.test: neutrophil elastase (Homo sapiens, UniProt P08246)
- Sequence (P08246 30-247 limits assumed): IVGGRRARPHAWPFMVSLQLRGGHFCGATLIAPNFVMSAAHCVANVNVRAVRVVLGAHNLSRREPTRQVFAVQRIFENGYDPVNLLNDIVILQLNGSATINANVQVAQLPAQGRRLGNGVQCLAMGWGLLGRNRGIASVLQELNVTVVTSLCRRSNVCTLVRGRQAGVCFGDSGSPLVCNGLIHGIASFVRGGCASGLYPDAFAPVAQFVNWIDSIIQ
- protocol.description: Human Neutrophil Elastase Assay
- condition.context: substrate MeOSuc-Ala-Ala-Pro-Val-AMC, pH 7.5, room temperature
pIC50: −log10 of the molar value.
measure.name: pIC50

Completed entries (count: 2):
molecule	recorded.number
COC1CCN(C(=O)CN2C(=O)N(c3cccc(C(F)(F)F)c3)C3=C(C(=O)CCC3)C2c2ccc(C#N)cc2)CC1 (centres unmarked)	8.51
CC1(C)CCC2=C(C1=O)C(c1ccc(C#N)cc1)NC(=O)N2c1cccc(C(F)(F)F)c1 (centres unmarked)	7.35

[P] CC(C)NC(=O)N1C(=O)N(c2ccnc(C(F)(F)F)c2)C2=C(C(=O)CCC2)C1c1ccc(C#N)cc1 (centres unmarked)
[Q] N#Cc1ccc(C2NC(=O)N(c3cc(C(F)(F)F)ccn3)C3=C2C(=O)CCC3)cc1 (centres unmarked)
q: Sort P and Q by pIC50 descending and give the first. Return value: the label identifying the chosen record.
a: P
(P: 8.72, Q: 6.96)

[I] COC(=O)N1C(=O)N(c2cccc(C(F)(F)F)c2)C2=C(C(=O)CCC2)C1c1ccc(C#N)cc1 (centres unmarked)
[II] CC(C)CS(=O)(=O)N1C(=O)N(c2cccc(C(F)(F)F)c2)C2=C(C(=O)CCC2)C1c1ccc(C#N)cc1 (centres unmarked)
[III] CN(C(=O)N1C(=O)N(c2cccc(C(F)(F)F)c2)C2=C(C(=O)CCC2)C1c1ccc(C#N)cc1)c1cnn(C)c1 (centres unmarked)
[IV] N#Cc1ccc(C2C3=C(CCCC3=O)N(c3cccc(C(F)(F)F)c3)C(=O)N2CC(=O)N2CCn3nccc3C2)cc1 (centres unmarked)
q: Sort ascending by pIC50. Lab note: final answer is the ordered label list.
a: III, I, II, IV

[I] N#Cc1ccc(C2C3=C(CCCC3=O)N(c3cccc(C(F)(F)F)c3)C(=O)N2CCCN2CCCC2)cc1 (centres unmarked)
[II] Cn1ccc(CNC(=O)N2C(=O)N(c3cccc(C(F)(F)F)c3)C3=C(C(=O)CCC3)C2c2ccc(C#N)cc2)n1 (centres unmarked)
q: Sort I and II by pIC50 descending and give the first. Return value: the label identifying the chosen record.
a: II
